conditions: 323.15 K; 101.3 kPa; Liquid; Vibrating tube method
Readout label: mass density (kg/m3)

{"Compound": "CCCC[n+]1ccn(C)c1.O=S(=O)([N-]S(=O)(=O)C(F)(F)F)C(F)(F)F", "Units": "kg/m3", "Observed": 1412.17}
{"Compound": "COC(=O)OC [dimethyl carbonate]", "Units": "kg/m3", "Observed": 1029.83}
{"Compound": "CCn1cc[n+](C)c1.O=S(=O)([N-]S(=O)(=O)C(F)(F)F)C(F)(F)F", "Units": "kg/m3", "Observed": 1493.28}
{"Compound": "CCOC(=O)OCC [diethyl carbonate]", "Units": "kg/m3", "Observed": 940.86}
